Taken from paper PMC8392292.

- assay_system: SARS-CoV-2 RdRp (Severe acute respiratory syndrome coronavirus 2, UniProt P0DTD1)
- measurement_protocol: cell-based
- Type: cell-based
- study_conditions: IC50 of SARS-CoV-2 RdRp activity
endpoint: IC50 (µM)

>>> measured_result("Nc1nc(=O)n([C@@H]2CS[C@H](CO)O2)cc1F")
15.4

----------
Collected IC50 values appear next to each entry.
- assay_system: SARS-CoV-2 RdRp (Severe acute respiratory syndrome coronavirus 2)
- measurement_protocol: cell-based
- Type: cell-based
- study_conditions: […]; mean ± standard error of the mean; read-out: IC50 of SARS-CoV-2 RdRp activity
Structures can show the parent of a compound that is named as a salt.
endpoint: IC50

>>> measured_result("N=C(N)/N=C(\\N)N1CCOCC1 [Moroxydine, moroxydine HCl]")
"48.9 µM"
>>> measured_result("Cc1cn([C@@H]2C[C@@H](O)[C@H](CO)O2)c(=O)[nH]c1=O [Telbivudine, telbivudine]")
"45.9 µM"
>>> measured_result("Cl.O[C@H]1[C@H]2c3cc4c(cc3CN3CCC(=C[C@@H]1O)[C@H]23)OCO4 [Lycorine, lycorine hydrochloride]")
"1.47 µM"
>>> measured_result("CC(C)(C)C(=O)OCOP(=O)(COCCn1cnc2c(N)ncnc21)OCOC(=O)C(C)(C)C [Adefovir Dipivoxil, adefovir dipivoxil]")
"3.78 µM"
>>> measured_result("CO[C@H]1/C=C/O[C@@]2(C)Oc3c(C)c(O)c4c(O)c(c(/C=N/N5CCN(C)CC5)c(O)c4c3C2=O)NC(=O)/C(C)=C\\C=C\\[C@H](C)[C@H](O)[C@@H](C)[C@@H](O)[C@@H](C)[C@H](OC(C)=O)[C@@H]1C [Rifampin, rifampin]")
"49.4 µM"

----------
Collected IC50 values appear next to each entry.
- assay_system: UniProtKB P0DTD1
- measurement_protocol: cell-based
- Type: cell-based
- study_conditions: representative experiment, non-linear regression graph; HEK293T, 15 h; read-out: IC50 of SARS-CoV-2 RdRp activity in the figure
Structures can show the parent of a compound that is named as a salt.
endpoint: IC50 (µM)

>>> measured_result("CO[C@H]1/C=C/O[C@@]2(C)Oc3c(C)c(O)c4c(O)c(c(/C=N/N5CCN(C)CC5)c(O)c4c3C2=O)NC(=O)/C(C)=C\\C=C\\[C@H](C)[C@H](O)[C@@H](C)[C@@H](O)[C@@H](C)[C@H](OC(C)=O)[C@@H]1C")
30.3
>>> measured_result("Cc1cn([C@@H]2C[C@@H](O)[C@H](CO)O2)c(=O)[nH]c1=O")
39.6
>>> measured_result("N=C(N)/N=C(\\N)N1CCOCC1 [Moroxydine, moroxydine HCl]")
37.1
>>> measured_result("CC(C)(C)C(=O)OCOP(=O)(COCCn1cnc2c(N)ncnc21)OCOC(=O)C(C)(C)C")
3.92
>>> measured_result("Cl.O[C@H]1[C@H]2c3cc4c(cc3CN3CCC(=C[C@@H]1O)[C@H]23)OCO4 [Lycorine, lycorine hydrochloride]")
1.34
